Data provenance: patent US7566718B2

# Tested target: human CXCR3 (N-delta 4) (Homo sapiens, UniProt P49682)
# Construct: CD8 leader (N); Flag tag; expressed in transfected cells; membrane preparation
# Sequence (P49682 5-368 limits assumed): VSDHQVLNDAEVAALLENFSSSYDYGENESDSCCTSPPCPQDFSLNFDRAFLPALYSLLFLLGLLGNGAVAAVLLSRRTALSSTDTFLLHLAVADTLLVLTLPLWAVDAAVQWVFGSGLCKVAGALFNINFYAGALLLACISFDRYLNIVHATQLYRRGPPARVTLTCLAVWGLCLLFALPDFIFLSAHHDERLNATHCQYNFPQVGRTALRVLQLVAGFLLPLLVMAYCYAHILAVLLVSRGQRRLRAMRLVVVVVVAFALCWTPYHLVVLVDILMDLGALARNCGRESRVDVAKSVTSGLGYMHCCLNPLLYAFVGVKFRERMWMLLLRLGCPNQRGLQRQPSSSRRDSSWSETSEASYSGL
# Assay text: Human CXCR3 (N-delta 4) scintillation proximity assay (SPA), [125I] IP-10 binding to Ba/F3-hCXCR3 membranes
# Test conditions: IC50 rating; [125I] IP-10 displacement, human CXCR3; read-out: IC50
Readout label: IC50

In the examples that follow, each entry is paired with its recorded IC50.
CC[C@H]1CN(c2ncc(NS(C)(=O)=O)cc2Cl)CCN1C1CCN(Cc2ccc(O)cc2)CC1	> 100 nM
CC[C@H]1CN(c2ncc([N+](=O)[O-])cc2Cl)CCN1C1CCN(Cc2ccc(Cl)cc2F)CC1	25 to 100 nM
CC[C@H]1CN(c2ncc(Nc3c(NCCO)c(=O)c3=O)cc2Cl)CCN1C1CCN(Cc2ccc(Cl)cc2C(N)=O)CC1	< 25 nM
CC[C@H]1CN(c2ncc(Nc3c(NCC(=O)OC(C)(C)C)c(=O)c3=O)cc2Cl)CCN1C1CCN([C@@H](CO)c2ccc(Cl)cc2)CC1	> 100 nM
CC[C@H]1CN(c2ncc(NC(=O)NC3CC3)cc2Cl)CCN1C1CCN(Cc2ccc(Cl)cc2F)CC1	< 25 nM

Moving on to another molecule below.
Determine from records and report IC50 for C[C@H]1CN(c2ncc(-n3cccn3)cc2Cl)CCN1C1CCN(Cc2ccc(Cl)cc2F)CC1
> 100 nM
